Source listed as patent US20220144960A1.

# test.system: T1, CD30 on CD30-expressing tumor cell lines (HH, MJ, H9) (UniProt P28908 19-595)
# T1 sequence (looked up): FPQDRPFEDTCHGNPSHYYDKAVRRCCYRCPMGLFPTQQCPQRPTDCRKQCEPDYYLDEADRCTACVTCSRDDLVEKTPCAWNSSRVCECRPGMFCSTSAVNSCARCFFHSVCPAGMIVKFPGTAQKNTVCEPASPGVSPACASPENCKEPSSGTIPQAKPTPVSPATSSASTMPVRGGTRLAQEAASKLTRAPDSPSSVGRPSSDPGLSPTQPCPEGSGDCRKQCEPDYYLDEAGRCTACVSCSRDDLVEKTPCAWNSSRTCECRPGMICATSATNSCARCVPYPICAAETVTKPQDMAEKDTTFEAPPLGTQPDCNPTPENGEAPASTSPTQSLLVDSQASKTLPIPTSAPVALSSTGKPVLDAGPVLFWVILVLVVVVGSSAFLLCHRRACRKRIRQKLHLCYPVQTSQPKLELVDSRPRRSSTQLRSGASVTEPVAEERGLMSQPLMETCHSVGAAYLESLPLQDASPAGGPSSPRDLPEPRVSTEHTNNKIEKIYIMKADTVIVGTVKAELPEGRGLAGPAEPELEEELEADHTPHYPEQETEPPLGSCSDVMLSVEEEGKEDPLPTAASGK
# test.description: cell-based or functional assay
test.readout: % MJ cell lysis E:T = 0.5:1 (LDH assay, CAR T cells) (%)
Expressed in %, but write only the number.

Please report the recorded % MJ cell lysis E:T = 0.5:1 (LDH assay, CAR T cells) for AS48481bbz CAR (other) EVQLVASGGGSVQAGETLRLSCTASGFTFADSAMGWYRKGPGNVCDLVAIIRTDGTTYYGDSAKGRFTISRDNAKSTLYLQMNSLKPEDTAVYFCAADRETSFIGGSWCVAKYWDQGTQVTVSSTTTPAPRPPTPAPTIASQPLSLRPEACRPAAGGAVHTRGLDFACDIYIWAPLAGTCGVLLLSLVITLYCKRGRKKLLYIFKQPFMRPVQTTQEEDGCSCRFPEEEEGGCELRVKFSRSADAPAYKQGQNQLYNELNLGRREEYDVLDKRRGRDPEMGGKPRRKNPQEGLYNELQKDKMAEAYSEIGMKGERRRGKGHDGLYQGLSTATKDTYDALHMQALPPR .
45.1
